# key: entry, value: melting point

[
  {
    "Compound": "COc1ccc(CNC(=O)c2cc([N+](=O)[O-])ccc2NC(C)(C)CO)cc1OC [Example 66]",
    "melting point": "161 to 162 °C"
  },
  {
    "Compound": "Cc1ccc(CNC(=O)c2cc([N+](=O)[O-])ccc2N[C@@H](C)CO)cc1Cl",
    "melting point": "178 to 179 °C"
  },
  {
    "Compound": "COc1ccc(CNC(=O)c2cc([N+](=O)[O-])ccc2NNCC(F)(F)F)cc1OC [Example 69]",
    "melting point": "140 to 142 °C"
  },
  {
    "Compound": "CC[C@@H](CO)Nc1ccc([N+](=O)[O-])cc1C(=O)NCc1ccc(OC)c(OC)c1 [Example 65]",
    "melting point": "168 to 169 °C"
  },
  {
    "Compound": "COc1cc(CNC(=O)c2cc([N+](=O)[O-])ccc2NC(CO)CO)ccc1Cl [Example 91]",
    "melting point": "176 to 177 °C"
  },
  {
    "Compound": "O=C(NCc1ccc2c(c1)OCO2)c1cc([N+](=O)[O-])ccc1N[C@H]1CC[C@H](O)CC1 [Example 1(1)]",
    "melting point": "205 to 206 °C"
  },
  {
    "Compound": "COc1ccc(CNC(=O)c2cc([N+](=O)[O-])ccc2Nc2ccc3[nH]cnc3c2)cc1OC [Example 80]",
    "melting point": "226.5 to 227 °C"
  },
  {
    "Compound": "COc1ccc(CNC(=O)c2cc(-c3ncc[nH]3)ccc2N[C@H]2CC[C@H](O)CC2)cc1OC [Example 90]",
    "melting point": "189 to 190 °C"
  },
  {
    "Compound": "O=C(NCc1ccccc1)c1cc([N+](=O)[O-])ccc1NC(CO)CO [Example 55]",
    "melting point": "171 to 173 °C"
  },
  {
    "Compound": "COc1cc(CNC(=O)c2cc([N+](=O)[O-])ccc2N[C@@H](C)CO)cc(OC)c1 [Example 107]",
    "melting point": "98 to 101 °C"
  }
]

Write down melting point measured for item COc1ccc(CNC(=O)c2cc([N+](=O)[O-])ccc2N[C@@H](CO)CCSC)cc1OC 150 to 152 °C

State, in one line, measured melting point of O=C(NCc1ccccc1)c1cc([N+](=O)[O-])ccc1N[C@H]1CC[C@H](O)CC1 [Example 51] 233 to 234 °C

Return melting point for the following compound: COc1ccc(CNC(=O)c2cc([N+](=O)[O-])ccc2N[C@H]2CC[C@@H](OC(C)=O)CC2)cc1OC 147 to 148 °C

State, in one line, measured melting point of COc1ccc(CNC(=O)c2cc([N+](=O)[O-])ccc2N[C@@H]2CCC[C@H]2O)cc1OC (relative stereo) [Example 67] 154 to 155 °C

Read off the recorded melting point for COc1ccc(CNC(=O)c2cc([N+](=O)[O-])ccc2NC2CC=CCC2)cc1F (stereo not drawn) [153(3)] 140 °C

Identify melting point associated with the compound COc1ccc(CNC(=O)c2cc(S(=O)(=O)N3CCN(C(=O)OC(C)(C)C)CC3)ccc2N[C@H]2CC[C@H](O)CC2)cc1OC [153(1)] 221 to 222 °C

Give the measured melting point for CCCCC(CO)Nc1ccc([N+](=O)[O-])cc1C(=O)NCc1ccc2c(c1)OCO2 (stereo not drawn) 112 to 115 °C

Give the measured melting point for Cc1ccc(CNC(=O)c2cc([N+](=O)[O-])ccc2N[C@H]2CC[C@@H](O)CC2)cc1C 157 to 158 °C
